biological target: T1, murine BACE1 ECD; assay: Octet, pH 5.0;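 further: antibodies captured on anti-human capture sensor tips, dissociation monitored in PBS with BSA buffer, kinetics fitted with a one-to-one binding model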
T1 construct: analyte of the Octet assay (200 nM) and enzyme of the first short substrate assay
T1 sequence (single chain, as listed by the source limits assumed): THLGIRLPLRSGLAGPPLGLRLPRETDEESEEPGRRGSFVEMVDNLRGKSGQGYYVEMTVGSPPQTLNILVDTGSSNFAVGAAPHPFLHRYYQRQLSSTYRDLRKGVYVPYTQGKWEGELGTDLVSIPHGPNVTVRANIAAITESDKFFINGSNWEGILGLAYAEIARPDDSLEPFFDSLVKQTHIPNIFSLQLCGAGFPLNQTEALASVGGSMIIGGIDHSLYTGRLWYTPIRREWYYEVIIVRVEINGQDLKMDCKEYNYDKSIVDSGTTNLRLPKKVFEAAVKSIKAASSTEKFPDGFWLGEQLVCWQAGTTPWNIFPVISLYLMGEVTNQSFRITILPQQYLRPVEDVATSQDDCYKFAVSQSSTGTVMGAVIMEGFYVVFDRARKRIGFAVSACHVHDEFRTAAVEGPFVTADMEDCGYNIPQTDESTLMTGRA
pKd: −log10 of the molar value.
observable: pKd

Examples with answers:
binder	pKd
5932 (antibody, V domains shown, anti-BACE1 IgG) VH: QLQLQESGPGLVKPSETLSLTCTVSGGSISRGSYYWGWIRQPPGKGLEWIGMIYYSGSTWYNPSLKSRVTISVDTSKNQFSLKLSSVTAADTAVYYCARVGHGISYFDLWGRGTLVTVSS VL: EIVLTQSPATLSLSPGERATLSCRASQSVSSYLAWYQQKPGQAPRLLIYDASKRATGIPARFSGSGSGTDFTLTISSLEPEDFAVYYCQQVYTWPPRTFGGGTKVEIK	> 9.52
5888 (antibody, V domains shown, anti-BACE1 IgG) VH: QVQLVQSGAEVKKPGSSVKVSCKASGGTFWKYAISWVRQAPGQGLEWMGNIIPGFGTANYAQKFRGRVTITADESTSTAYMELSSLRSEDTAVYYCARSGGTKYGMLDVWGQGTMVTVSS VL: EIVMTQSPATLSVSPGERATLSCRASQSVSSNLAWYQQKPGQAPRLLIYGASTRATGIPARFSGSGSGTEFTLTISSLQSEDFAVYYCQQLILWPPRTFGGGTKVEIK	8.70

Prompt: Query: pKd; subject: 5933 (antibody, V domains shown, anti-BACE1 IgG) VH: QLQLQESGPGLVKPSETLSLTCTVSGGSISRGSYYWGWIRQPPGKGLEWIGMIYYSGSTWYNPSLKSRVTISVDTSKNQFSLKLSSVTAADTAVYYCARVGHGVSYFDLWGRGTLVTVSS VL: EIVLTQSPATLSLSPGERATLSCRASQSVSSYLAWYQQKPGQAPRLLIYGASKRATGIPARFSGSGSGTDFTLTISSLEPEDFAVYYCQQVYTWPPRTFGGGTKVEIK
Response: > 9.62
